System: U2OS
Assay: Multiplex assay against U2OS
Assay type: toxicity, cell-based
Settings: human, 24 h, 10 µM, compound concentration 10 uM, replicate 2
In this section we review reported Population Mitotic Cells (%) values for a set of molecules.
Give just the number in %; leave the unit off.

Below: 3 molecules and their reported Population Mitotic Cells (%).
>>> print(df.to_string())
                                   molecule             measurement_label  reading
0  CCCS(=O)(=O)Nc1ccc(F)c(C(=O)c2c[nH]c3ncc(Cl)cc23)c1F  Population Mitotic Cells (%)       42
1  O=C(Nc1ccc(Cl)cc1)Nc1cccc(-c2cccc(N3CCCC3)n2)c1  Population Mitotic Cells (%)       27
2  CN1CCC(=C2c3ccccc3CC(=O)c3sccc32)CC1.O=C(O)/C=C/C(=O)O [KETOTIFEN FUMARATE]  Population Mitotic Cells (%)       40

Okay, next one:
Q. Give a short answer stating reported Population Mitotic Cells (%) for O=C(Nc1ccc(-c2ccnc(Nc3ccc(N4CCOCC4)cc3)n2)cc1)[C@@H]1CCCN1 .
A. 41

----------
Test system: HEK-293T
Assay: Multiplex assay against HEK293T
Type: toxicity, cell-based
Settings: human, 24 h, 1 µM, compound concentration 1 uM, replicate 1
In this section we review reported Population Membrane Permeable-Phenotype (%) values for a set of molecules.

Below: 5 molecules and their reported Population Membrane Permeable-Phenotype (%).
In [3]: df
Out[3]:
                                   molecule  reading
0  CN1C2CCC1CC(OC(c1ccc(F)cc1)c1ccc(F)cc1)C2.Cl (configuration not stated)      10%
1  NC(=O)c1cccc(-c2cc(Nc3ccc(OC(F)(F)F)cc3)ncn2)c1       7%
2  CCCS(=O)(=O)Nc1ccc(F)c(C(=O)c2c[nH]c3ncc(Cl)cc23)c1F       7%
3  Cc1cn(-c2cc(NC(=O)c3ccc(C)c(Nc4nccc(-c5cccnc5)n4)c3)cc(C(F)(F)F)c2)cn1       1%
4  C=C1/C(=C\C=C2/CCC[C@]3(C)[C@@H]([C@H](C)/C=C/[C@H](C)C(C)C)CC[C@@H]23)C[C@@H](O)C[C@@H]1O       0%

Q. Using HEK-293T as the test system, report measured Population Membrane Permeable-Phenotype (%) of COc1cc(N2CCN(C)CC2)ccc1Nc1ncc2c(n1)N(C)c1ccccc1C(=O)N2C .
A. 1%

Q. Using HEK-293T as the test system, report measured Population Membrane Permeable-Phenotype (%) of CN(C)C(=O)C(CCN1CCC(O)(c2ccc(Cl)cc2)CC1)(c1ccccc1)c1ccccc1.Cl [LOPERAMIDE HYDROCHLORIDE] .
A. 1%

----------
Test system: U2OS
Assay: Multiplex assay against U2OS
Assay type: toxicity, cell-based
Settings: human, 24 h, 1 µM, compound concentration 1 uM, replicate 1
Could you please mark condition met for values of Population Fragmented Nuclei (%) below 9% and condition not met for values at or above it?

Worked examples, 5 compounds total:
COMPOUND	QUALITATIVE LABEL
CN(C)C(=O)C(CCN1CCC(O)(c2ccc(Cl)cc2)CC1)(c1ccccc1)c1ccccc1.Cl [LOPERAMIDE HYDROCHLORIDE]	condition not met
Cc1ccc(C(=O)Nc2cccc(C(F)(F)F)c2)cc1Nc1nc(-c2cccnc2)nc2c1cnn2C	condition not met
C=C1/C(=C\C=C2/CCC[C@]3(C)[C@@H]([C@H](C)/C=C/[C@H](C)C(C)C)CC[C@@H]23)C[C@@H](O)C[C@@H]1O [DOXERCALCIFEROL]	condition met
COC(=N)c1nc2ccc3ncnc(Nc4ccc(OC)cc4F)c3c2s1	condition met
COc1ccc(-c2ccc3c(N4CCOCC4)nc(N4C[C@@H](C)O[C@@H](C)C4)nc3n2)cc1CO [Ku-0063794]	condition met

We next turn to a different compound, shown below.
Q. API: query returns whether the compound falls strictly under 9% in Population Fragmented Nuclei (%). Query: Cl.Oc1ccc2c3c1O[C@H]1c4[nH]c5c(c4C[C@@]4(O)[C@@H](C2)N(CC2CC2)CC[C@]314)C[C@@]1(O)[C@H]2Cc3ccc(O)c4c3[C@@]1(CCN2CC1CC1)[C@H]5O4
A. condition met
